Biological target: CDK2 (human) (UniProt P24941)
Assay: KINOMEscan competition binding
Conditions: compound 10.0 µM
property measured: kinase still bound, per cent of control (%)
Field format: number, assumed %, no unit text.

For `COc1cc(N2CCN(C)CC2)ccc1Nc1ncc2c(n1)N(C)c1ccccc1N(C)C2=O` , what is its reported kinase still bound, per cent of control?
75

Cool, now `N=C1NC(=O)/C(=C/c2ccc(-c3ccc(C(N)=O)cc3O)o2)S1`
19

`COc1cc(N2CCN(C)CC2)ccc1Nc1ncc2c(n1)Nc1ccccc1NC2=O` ?
100

Entry to check: `COc1cc(N2CCN(C)CC2)ccc1Nc1ncc2c(n1)N(C)c1sccc1C(=O)N2C`
92

Next:
Given the entry `N=C1NC(=O)/C(=C/c2ccc(-c3ccc(F)cc3O)o2)S1` , report its measured kinase still bound, per cent of control.
6.6

Can you check `CN1CCN(c2ccc(C(=O)Nc3ncc4c(n3)N(C)c3ccccc3C(=O)N4C)cc2)CC1` next?
98

Another molecule: `O=C1NC(=O)/C(=C/c2c[nH]c(=O)c(-c3ccc(N4CCNCC4)nc3)c2)S1`
73

Try `CN1C(=O)c2ccccc2N(C)c2nc(Nc3ccc(N4CCC(O)CC4)cc3)ncc21` next.
91

Ok, now `N=C1NC(=O)/C(=C/c2ccc(-c3ccccc3O)o2)S1`
20

Another: `CN1C(=O)c2ccccc2N(C)c2nc(NS(=O)(=O)c3ccc(N)cc3)ncc21`
100

Cool, now `COc1cc(N2CCC(O)CC2)ccc1Nc1ncc2c(n1)N1CCc3cccc(c31)C(=O)N2C`
87

meta.source: the kinase profiling compilation of Christmann-Franck et al. (2016)
